B1: RAB11A (parent)
chain: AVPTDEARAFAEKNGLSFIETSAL

Variants of: B1
procedureSummary: protein stability index of a GFP-peptide fusion (GPS, HEK-293T) (PSI 1-6); higher = more stable;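 further: lentivirally expressed fusions sorted by FACS into six bins by GFP to DsRed ratio, PSI derived from sequencing read proportions per bin multiplied by bin number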
measurementContext: c terminus: a fixed tail appended
measuredQuantity: protein stability index
Form: value (number only, do not type unit).

Could you please provide reported protein stability index for A11K ? Thanks!
1.96

In one line, give reported protein stability index of the entry S17D .
3.14

Identify protein stability index associated with the variant E20G
2.02

Identify protein stability index associated with the variant D5Y
2.15

// Input: L16C . Output its protein stability index only.
3.66

Answer with the recorded protein stability index for the variant listed here: E20R
2.5

Give the reported protein stability index for this variant. A9H
1.97

Specify reported protein stability index for the variant shown: G15W
2.3

Identify measured protein stability index associated with L16M
3.73

Please list protein stability index recorded for the variant F18E
4.57

Return protein stability index (reported value) for this variant: L24I
2.34

Tell me its protein stability index given D5W as the entry.
1.49

Supply measured protein stability index of D5M in your reply.
1.72

In one line, give reported protein stability index of the entry L24H .
4.06

Please look at this variant and report its protein stability index: T21Q
3.75

Using the record for R8P , state its measured protein stability index.
1.86

Quick one: give measured protein stability index for G15L
1.67

# return recorded protein stability index for entry P3V
2.14

# return recorded protein stability index for entry S17W
2.66

Quote protein stability index reported for R8T please.
2.84
